# Test settings: in n-propanol, 318.15 K
Measured property: solubility (mole fraction)
Give only the figure.

What measured solubility (mole fraction) goes with CCCCN1CCCCC1C(=O)Nc1c(C)cccc1C.Cl (stereo unspecified) ? 0.0172

* * *

# Test settings: in methanol, 298.15 K
Measured property: solubility (mole fraction)

What measured solubility (mole fraction) goes with CCCCN1CCCCC1C(=O)Nc1c(C)cccc1C.Cl (stereo unspecified) ? 0.014

* * *

# Test settings: in ethanol, 303.15 K
Measured property: solubility (mole fraction)
Give only the figure.

What measured solubility (mole fraction) goes with CCCCN1CCCCC1C(=O)Nc1c(C)cccc1C.Cl (stereo unspecified) ? 0.0115

* * *

# Test settings: in ethanol, 298.15 K
Measured property: solubility (mole fraction)
Give only the figure.

What measured solubility (mole fraction) goes with CCCCN1CCCCC1C(=O)Nc1c(C)cccc1C.Cl (stereo unspecified) ? 0.0099

* * *

# Test settings: in acetic acid, 333.15 K
Measured property: solubility (mole fraction)
Give only the figure.

What measured solubility (mole fraction) goes with CCCCN1CCCCC1C(=O)Nc1c(C)cccc1C.Cl (stereo unspecified) ? 0.13

* * *

# Test settings: in acetic acid, 318.15 K
Measured property: solubility (mole fraction)

What measured solubility (mole fraction) goes with CCCCN1CCCCC1C(=O)Nc1c(C)cccc1C.Cl (stereo unspecified) ? 0.0702

* * *

# Test settings: in n-butanol, 298.15 K
Measured property: solubility (mole fraction)

What measured solubility (mole fraction) goes with CCCCN1CCCCC1C(=O)Nc1c(C)cccc1C.Cl (stereo unspecified) ? 0.0121

* * *

# Test settings: in acetic acid, 293.15 K
Measured property: solubility (mole fraction)
Give only the figure.

What measured solubility (mole fraction) goes with CCCCN1CCCCC1C(=O)Nc1c(C)cccc1C.Cl (stereo unspecified) ? 0.0322

* * *

# Test settings: in n-propanol, 313.15 K
Measured property: solubility (mole fraction)
Give only the figure.

What measured solubility (mole fraction) goes with CCCCN1CCCCC1C(=O)Nc1c(C)cccc1C.Cl (stereo unspecified) ? 0.0135

* * *

# Test settings: in isopropanol, 323.15 K
Measured property: solubility (mole fraction)
Give only the figure.

What measured solubility (mole fraction) goes with CCCCN1CCCCC1C(=O)Nc1c(C)cccc1C.Cl (stereo unspecified) ? 0.0051

* * *

# Test settings: in n-butanol, 293.15 K
Measured property: solubility (mole fraction)
Give only the figure.

What measured solubility (mole fraction) goes with CCCCN1CCCCC1C(=O)Nc1c(C)cccc1C.Cl (stereo unspecified) ? 0.0108

* * *

# Test settings: in n-propanol, 333.15 K
Measured property: solubility (mole fraction)

What measured solubility (mole fraction) goes with CCCCN1CCCCC1C(=O)Nc1c(C)cccc1C.Cl (stereo unspecified) ? 0.0342

* * *

# Test settings: in acetic acid, 303.15 K
Measured property: solubility (mole fraction)
Give only the figure.

What measured solubility (mole fraction) goes with CCCCN1CCCCC1C(=O)Nc1c(C)cccc1C.Cl (stereo unspecified) ? 0.0399

* * *

# Test settings: in isopropanol, 328.15 K
Measured property: solubility (mole fraction)
Give only the figure.

What measured solubility (mole fraction) goes with CCCCN1CCCCC1C(=O)Nc1c(C)cccc1C.Cl (stereo unspecified) ? 0.006

* * *

# Test settings: in DMF, 293.15 K
Measured property: solubility (mole fraction)
Give only the figure.

What measured solubility (mole fraction) goes with CCCCN1CCCCC1C(=O)Nc1c(C)cccc1C.Cl (stereo unspecified) ? 0.0036

* * *

# Test settings: in n-butanol, 323.15 K
Measured property: solubility (mole fraction)
Give only the figure.

What measured solubility (mole fraction) goes with CCCCN1CCCCC1C(=O)Nc1c(C)cccc1C.Cl (stereo unspecified) ? 0.0288

* * *

# Test settings: in methanol, 323.15 K
Measured property: solubility (mole fraction)
Give only the figure.

What measured solubility (mole fraction) goes with CCCCN1CCCCC1C(=O)Nc1c(C)cccc1C.Cl (stereo unspecified) ? 0.0346

* * *

# Test settings: in ethanol, 323.15 K
Measured property: solubility (mole fraction)
Give only the figure.

What measured solubility (mole fraction) goes with CCCCN1CCCCC1C(=O)Nc1c(C)cccc1C.Cl (stereo unspecified) ? 0.0254

* * *

# Test settings: in acetic acid, 328.15 K
Measured property: solubility (mole fraction)
Give only the figure.

What measured solubility (mole fraction) goes with CCCCN1CCCCC1C(=O)Nc1c(C)cccc1C.Cl (stereo unspecified) ? 0.109

* * *

# Test settings: in ethanol, 328.15 K
Measured property: solubility (mole fraction)
Give only the figure.

What measured solubility (mole fraction) goes with CCCCN1CCCCC1C(=O)Nc1c(C)cccc1C.Cl (stereo unspecified) ? 0.0312

* * *

# Test settings: in n-butanol, 328.15 K
Measured property: solubility (mole fraction)
Give only the figure.

What measured solubility (mole fraction) goes with CCCCN1CCCCC1C(=O)Nc1c(C)cccc1C.Cl (stereo unspecified) ? 0.0355

* * *

# Test settings: in water, 313.15 K
Measured property: solubility (mole fraction)

What measured solubility (mole fraction) goes with CCCCN1CCCCC1C(=O)Nc1c(C)cccc1C.Cl (stereo unspecified) ? 0.0025

* * *

# Test settings: in DMF, 323.15 K
Measured property: solubility (mole fraction)
Give only the figure.

What measured solubility (mole fraction) goes with CCCCN1CCCCC1C(=O)Nc1c(C)cccc1C.Cl (stereo unspecified) ? 0.0128

* * *

# Test settings: in ethanol, 313.15 K
Measured property: solubility (mole fraction)
Give only the figure.

What measured solubility (mole fraction) goes with CCCCN1CCCCC1C(=O)Nc1c(C)cccc1C.Cl (stereo unspecified) ? 0.0169
